Give log10 Ki for every item shown.
Molecular target: Hepatocyte Growth Factor Activator (HGFA) serine protease domain, N-terminal His-tag, recombinant (Homo sapiens (Human)) (UniProt Q04756)
Assay: fluorogenic inhibition assay
*: point of attachment. kbt‑6‑CONH‑4‑pyridine = ketobenzothiazole-6-CONH-4-pyridine (Kbt-4-pyridinylamide), O=C(Nc1ccncc1)c1ccc2nc(*)sc2c1; kbt‑6‑CONH‑Bn = ketobenzothiazole-6-CONH-benzyl (Kbt-benzylamide), O=C(NCc1ccccc1)c1ccc2nc(*)sc2c1; kbt = C-terminal ketobenzothiazole, c1ccc2sc(*)nc2c1; Kbt = ketobenzothiazole, c1ccc2sc(*)nc2c1; kt = C-terminal ketothiazole, c1csc(*)n1; Fmoc = O=C(OCC1c2ccccc2-c2ccccc21)*
Log scale reminder: Ki in µM, then log10 taken.

Could you report log10 Ki for every entry in the following list?
1. Fmoc-Leu-Arg-kbt [Fmoc-LR-kbt]
2. Ac-NKLR-kt (SMILES CC(=O)N[C@@H](CC(N)=O)C(=O)N[C@@H](CCCCN)C(=O)N[C@@H](CC(C)C)C(=O)N[C@@H](CCCNC(=N)N)C(=O)c1nccs1) [Ac-NKLR(SEQ ID NO: 14)-kt]
3. Ac-KQLR-Kbt (SMILES CC(=O)N[C@@H](CCCCN)C(=O)N[C@@H](CCC(N)=O)C(=O)N[C@@H](CC(C)C)C(=O)N[C@@H](CCCNC(=N)N)C(=O)c1nc2ccccc2s1) [Ac-KQLR(SEQ ID NO: 1)-Kbt]
4. Ac-SKLR-{kbt‑6‑CONH‑4‑pyridine} [Ac-SKLR(SEQ ID NO: 10)-Kbt-4-pyridinylamide]
5. Ac-SKLR-{kbt‑6‑CONH‑Bn} [Ac-SKLR(SEQ ID NO: 10)-Kbt-benzylamide]
6. Ac-WRLR-kt (SMILES CC(=O)N[C@@H](Cc1c[nH]c2ccccc12)C(=O)N[C@@H](CCCNC(=N)N)C(=O)N[C@@H](CC(C)C)C(=O)N[C@@H](CCCNC(=N)N)C(=O)c1nccs1) [Ac-WRLR(SEQ ID NO: 9)-kt]

-0.35
-1.10
-1.52
-1.50
-2.04
-1.68

Source: patent US20180066015A1
